- Tested on: CAKI-1 renal
- PROCEDURE TEXT: NCI tumour cell line growth inhibition, 48 h
# maps each entry to its TGI

| MOLECULE | RELATION SYMBOL | TGI (µM) |
| --- | --- | --- |
| CO[C@H]1CC[C@]2(C)C3=CC[C@@]4(C)C(CC[C@@H]4C(C)CC[C@@H](C)C(C)C)C(=CCC2C1)O3 (stereo not given in full) | > | 25 |
| COC(=O)CCCC1(CCCC(=O)OC)CCCCCCCCC(CCCC(=O)OC)(CCCC(=O)OC)C(=O)C1=O | = | 24.4 |
| COc1ccc(C(C#N)=C2C=CC(=NO)C=C2)cc1 | = | 15.1 |
| C#CCN(N=O)C(=O)NCCCCC(NC(=O)OCc1ccccc1)C(=O)OCc1ccccc1 (stereo not given) | = | 56.6 |
| Oc1cc(Cl)cc2cc(Cl)cnc12 | = | 57.7 |

====

- Tested on: SF-295 CNS
- PROCEDURE TEXT: NCI tumour cell line growth inhibition, 48 h
# maps each entry to its TGI

| MOLECULE | U | RELATION SYMBOL | TGI |
| --- | --- | --- | --- |
| Cc1ccc2n(c1)cc(-c1ccc(/C=N/NC(=N)N/N=C/c3ccc(-c4cn5cc(C)ccc5[n+]4C)cc3)cc1)[n+]2C | µM | > | 100 |
| O=C(/C=C/c1ccc(OCc2ccccc2)cc1)NCc1ccc(C(=O)NCc2ccccc2)cc1 | µM | > | 100 |
| CC(CN1CC(=O)NC(=O)C1)N1CC(=O)NC(=O)C1 (centres undefined) | µM | > | 750 |
| CC(C)=O.O=C([O-])C(F)(F)F.O=C([O-])C(F)(F)F.O=C([O-])C(F)(F)F.O=C([O-])C(F)(F)F.[Rh+2].[Rh+2] | µM | > | 100 |
| C=C(C)[C@@H]1CC[C@]2(COCCCNCCCN)CC[C@]3(C)[C@H](CC[C@@H]4[C@@]5(C)CC[C@H](OCCCN)C(C)(C)[C@@H]5CC[C@]43C)[C@@H]12 | µM | = | 1.59 |
| Cn1cc(-c2nc(-c3c[nH]c4ccncc34)cs2)c2ccccc21 | µM | = | 3.32 |
| O=C(OCC1CCCN2CCCCC12)c1cccnc1 (centres undefined) | µM | > | 100 |
| Fc1ccc2[nH]cc(-c3nc(-c4c[nH]c5ccncc45)cs3)c2c1 | µM | = | 3.1 |
| CCCCCCCCCCCCCCCCNCC(O)CN (centres undefined) | µM | = | 6.93 |

====

- Test system: OVCAR-5 ovarian
- PROCEDURE TEXT: NCI tumour cell line growth inhibition, 48 h
# maps each entry to its TGI
QUANTITY: TGI

| COMPOUND | MEASURED RESULT |
| --- | --- |
| CC(C)=O.O=C([O-])C(F)(F)F.O=C([O-])C(F)(F)F.O=C([O-])C(F)(F)F.O=C([O-])C(F)(F)F.[Rh+2].[Rh+2] | > 100 µM |
| Cc1ccc(S(=O)(=O)NC(=O)NCCc2ccc(O)c(O)c2)cc1 | > 100 µM |
| C[C@]12CC[C@@H]3c4ccc(O)cc4CC[C@H]3[C@@H]1CC[C@@H]2NS(=O)(=O)c1cccc(Cl)c1 | 8.54 µM |
| CC(C)NCC(O)c1ccc(O)c2ncccc12 (stereo not given) | > 100 µM |
| CCCCCCCCCC(O)CC(=O)c1c(O)cccc1O (stereo not given) | 35.7 µM |

====

- Test system: DMS 114 small cell lung
- PROCEDURE TEXT: NCI tumour cell line growth inhibition, 48 h
# maps each entry to its TGI
QUANTITY: TGI

| SMILES STRING | QUANTITY | MEASURED RESULT |
| --- | --- | --- |
| Cc1c(OCCCOc2ccc3c(=O)cc(-c4ccccc4)oc3c2C)ccc2c(=O)cc(-c3ccccc3)oc12 | TGI | > 100 µM |
| N=c1n(CC(=O)NC23CC4CC(CC(C4)C2)C3)c2ccccc2n1CC(=O)NC12CC3CC(CC(C3)C1)C2 | TGI | 3.67 µM |
| COc1cc(N)c2[nH]c3c(C)ccc(C)c3c2c1 | TGI | > 100 µM |
| O=C(Nc1cc(Cl)ccc1Cl)c1cc2cccc(Br)c2oc1=O | TGI | > 100 µM |
| Nc1ccc2nc(Nc3ccc(Cl)c(Cl)c3)cnc2c1 | TGI | 24.5 µM |
| CCO/C(CCn1[nH]c(=O)c(Cl)c(Cl)c1=O)=N\NC(=O)C(=O)NN | TGI | > 100 µM |
| NCCOCn1cc(Cc2cccc(OCc3ccccc3)c2)c(=O)[nH]c1=O | TGI | > 100 µM |
| CCCN(CCC)CCc1cc(C(C)=O)n(S(=O)(=O)c2ccc(C)cc2)c1 | TGI | > 100 µM |
| CSC(=Nc1ccccc1Cl)NC(=O)c1ccc(Br)cc1 | TGI | > 100 µM |
| CC(C)(CN1CCOCC1)C(=O)/C=C/c1ccc(/C=C/C(=O)C(C)(C)CN2CCOCC2)cc1 | TGI | 2.16 µM |
| Brc1c2nc3ccccc3nc2n2ccc3ccccc3c12 | TGI | > 100 µM |
| COc1ccc2c3c(c(C(=O)O)oc13)CCC2 | TGI | > 100 µM |

====

- Test system: DU-145 prostate
- PROCEDURE TEXT: NCI tumour cell line growth inhibition, 48 h; in the data active means GI50 below about 0.43 µM; inactive means the rest
Outcomes: label 1 for active, label 0 for inactive

| COMPOUND | CLASS NAME |
| --- | --- |
| O=C(Nc1ccc2ncnc(Nc3ccc(Oc4cccc(F)c4)c(Cl)c3)c2c1)c1ccc(CN2CCOCC2)cc1 | label 0 |
| CC(=Nc1ccccc1)C1=C(O)C(Cc2cccc(F)c2)NC1=O (stereo not given) | label 1 |
| CCN1C(=O)N(CC)C2C1NN=c1s/c(=C\c3cccs3)c(=O)n12 (stereo not given) | label 1 |
| COc1ccc(C(C#N)=C2C=CC(=NO)C=C2)cc1 | label 0 |
| COc1cc(OC)c(/C=C/C(=O)c2ccc(Nc3ncnc4ccccc34)cc2)c(OC)c1 | label 0 |
| Oc1[nH]c(N=C2N=c3ccccc3=N2)c2ccccc12 | label 0 |
| CCN(CC)CCCOc1ccc2ncnc(Nc3ccc(Oc4cccc(C(F)(F)F)c4)c(Cl)c3)c2c1 | label 0 |
| CCCCCCCCCCCC[N+](C)(C)Cc1ccccc1 | label 0 |
| Cn1cc(-c2nc(-c3c[nH]c4ccncc34)cs2)c2ccccc21 | label 0 |
| Cc1ccc(-c2c(C#N)[n+](=O)c3cc(F)c(F)cc3n2[O-])cc1 | label 0 |

====

- Test system: UACC-257 melanoma
- PROCEDURE TEXT: NCI tumour cell line growth inhibition, 48 h; in the data active = GI50 below about 0.43 µM; inactive = the rest
*1 amine or outer side, *2 acyl side, *3 side chain or, on linkers, in order; H or OH if unused. Where a SMILES comes first, the peptide text is derived from it. Bridges are numbered along the chain shown (N, C = ends). Roman numbers before positions name the chains, in order. [ ]: non-standard residue; d: D form. Actinocin(9to1) = Cc1c2oc3c(C)ccc(C(=O)[*:1])c3nc-2c(C(=O)[*:2])c(N)c1=O; NMeV = CN[CH](C(=O)O)C(C)C; Sar = CNCC(=O)O
Outcomes: YES for active, NO for inactive

| MOLECULE | CLASS NAME |
| --- | --- |
| COc1ccc(C(C#N)=C2C=CC(=NO)C=C2)cc1 | NO |
| Cc1ccc(-c2c(C#N)[n+](=O)c3cc(F)c(F)cc3n2[O-])cc1 | NO |
| C=C(C)[C@@H]1CC[C@]2(COCCCNCCCN)CC[C@]3(C)[C@H](CC[C@@H]4[C@@]5(C)CC[C@H](OCCCN)C(C)(C)[C@@H]5CC[C@]43C)[C@@H]12 | NO |
| CCC#CC[C@H](O)C/C=C1/C(=O)C=C[C@@H]1C/C=C\CCCC(=O)OC | NO |
| COc1cc2c3c(n(CCCCNC(=O)OC(C)(C)C)c(=O)c2cc1OC)-c1cc2c(cc1C3=O)OCO2 | NO |
| CCCCCCCN(CCCCCCC)C(=N)c1ccnc2ccccc12 | NO |
| COc1cc(-c2nn(-c3cccc(NC(=O)NCCNS(=O)(=O)c4ccc(Cl)cc4)c3)cc2-c2ccncc2)ccc1Cl | NO |
| CC(CN(C)C)S(=O)(=O)c1ccc(-c2cnc(N)c(C(=O)Nc3ccccc3)n2)cc1 (stereo unspecified) | NO |
| O=C1Nc2ccccc2/C1=C\c1cccc(/C=C2/C(=O)Nc3ccccc32)n1 | YES |
| O=c1cc(-c2ccccc2)oc2ccc(OC/C(=N/O)c3ccc(F)cc3)cc12 | NO |
| CN(C)C[C@H]1CCn2c(c(C3=C(c4cn(C)c5ccccc45)C(=O)NC3=O)c3ccccc32)C1 | NO |
| Cn1cc(-c2nc(-c3c[nH]c4ccncc34)cs2)c2ccccc21 | NO |
| N#Cc1ccc(CSc2ncnc3nc[nH]c23)cc1 | NO |
| Cc1c2oc3c(C)ccc(C(=O)OC(C)C4NC(=O)C(C(C)C)N(C)C(=O)CN(C)C(=O)C5CCCN5C(=O)C(C(C)C)NC4=O)c3nc-2c(C(=O)OC(C)C2NC(=O)C(C(C)C)N(C)C(=O)CN(C)C(=O)C3CCCN3C(=O)C(C(C)C)NC2=O)c(N)c1=O (stereo unspecified) (I: cyclo([Sar][NMeV]TVP) / II: cyclo([Sar][NMeV]TVP); linker I:3-II:3 via Actinocin(9to1); configuration not given here) | YES |
| COc1ccc(-c2nsc3c2NC(=O)CC3c2ccc3c(c2)OCCO3)cc1 (stereo unspecified) | NO |
| O=C(Nc1ccc2ncnc(Nc3ccc(Oc4cccc(F)c4)c(Cl)c3)c2c1)c1ccc(CN2CCOCC2)cc1 | NO |
